# TARGET_OF_ASSAY: SARS-CoV-2 NSP3 UBl1 domain (SARS-CoV-2, UniProt P0DTD1 819-925)
# ASSAY_METHOD_TEXT: fluorescence polarisation
# EXPERIMENTAL_CONTEXT: both partners purified
TEST_READOUT: IC50 (µM)

> print(dat)
                                     binder  assay.value
1  PSDEGALLDQLYLALR [NCOA2 wt peptide 1073-1088]          139
